Biological target: T1, human C5a receptor (human, UniProt P21730 1-350)
T1 construct: In the SPA: receptor-carrying membrane fragments of RBL-hC5aR cells; also called hC5aR; C5aRI
T1 sequence: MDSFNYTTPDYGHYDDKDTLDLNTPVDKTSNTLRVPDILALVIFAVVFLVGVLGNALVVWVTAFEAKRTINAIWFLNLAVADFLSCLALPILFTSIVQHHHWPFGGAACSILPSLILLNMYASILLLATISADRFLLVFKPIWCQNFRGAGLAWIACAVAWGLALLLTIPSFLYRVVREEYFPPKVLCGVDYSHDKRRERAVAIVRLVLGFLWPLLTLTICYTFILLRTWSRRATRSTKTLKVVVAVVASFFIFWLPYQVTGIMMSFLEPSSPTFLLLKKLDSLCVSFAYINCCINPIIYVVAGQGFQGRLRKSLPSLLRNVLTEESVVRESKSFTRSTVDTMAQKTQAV
Assay: SPA, displacement of 125I-hC5a from RBL-hC5aR membranes
READOUT: IC50 (nM)
Please reply with the bare figure in nM and do not write the unit itself.

-- ask Which IC50 reading was recorded for the binder 32F3A6 (antibody, V domains shown, Human monoclonal antibody from HumAb mice, purified from hybridoma supernatant) VH: EVQLVQSGGGLVHPGGSLRLSCAGSGFTFSSYVMHWVRQAPGKGLEWVSAIDTGGGTYYADSVKGRFTISRDNAKNSLYLQMNSLRAEDMAVYYCARDYYYYASGSYYKAFDIWGQGTMVTVSS VL: EIVLTQSPGTLSLSPGERATLSCRASQSVSSRYLAWYQQKPGQAPRLLIYGASSRATGIPDRFSGSGSGTDFTLTISRLEPEDFAVYYCQQYGSPLTFGQGTKLEIKR ?
-- reply 1.9
